# Tested on: BV2 microglial cells
# assay_explanation: LPS-induced TNFα secretion by BV2 microglia cell cultures (ELISA)
# Assay type: cell-based, murine
# experimental_conditions: THC 0.1, 0.5 and 1 µM; CBDA 0.2, 1 and 2 µM; CBC 0.1, 1 and 2 µM; α-pinene, β-pinene, limonene 25 or 100 µM
observable: effect on lipopolysaccharide-induced TNFα secretion

Answered examples (5):
C=C(C)[C@H]1CC=C(C)CC1; no effects
C=C(C)[C@@H]1CCC(C)=C[C@H]1c1c(O)cc(CCCCC)c(C(=O)O)c1O; no effect
C=C1CCC2CC1C2(C)C (stereo not drawn); no effects
CCCCCc1cc(O)c2c(c1)OC(C)(C)[C@@H]1CCC(C)=C[C@@H]21 [THC, Δ-9 tetrahydrocannabinol]; no effect
CC1=CCC2CC1C2(C)C (stereo not drawn); no effects

q: Which effect on lipopolysaccharide-induced TNFα secretion is reported for this compound? CCCCCc1cc(O)c2c(c1)OC(C)(CCC=C(C)C)C=C2 (stereo not drawn)
a: no effect
